Would you kindly list pEC50 for each of these compounds?
# System: HIV-1
# test.name: HIV inhibition assay in acutely infected CEM cells (tetrazolium/MTT based)
# Format: cell-based
# reported.conditions: Human immunodeficiency virus 1, CCRF-CEM, 168 h, HIV-1 1000 TCID50, MTT, 7 days
In plain terms, pEC50 is the concentration in mol/L turned into minus its base-10 logarithm.

stdin: Any idea what pEC50 was measured for CC(C)CN(C[C@@H](O)[C@H](Cc1ccccc1)NC(=O)[C@H](C)CS(=O)(=O)Cc1nc2ccccc2[nH]1)S(=O)(=O)c1ccc2c(c1)OCO2 ?
stdout: 7.33

stdin: Any idea what pEC50 was measured for CC(C)CN(C[C@@H](O)[C@H](Cc1ccccc1)NC(=O)[C@H](C)CS(=O)(=O)C[C@H]1CCCN1C(=O)OCc1ccccc1)S(=O)(=O)c1ccc2c(c1)OCO2 ?
stdout: 7.37

stdin: Any idea what pEC50 was measured for CC(C)CN(C[C@@H](O)[C@H](Cc1ccccc1)NC(=O)[C@H](C)CS(=O)(=O)C[C@H]1CCCN1)S(=O)(=O)c1ccc2c(c1)OCO2 ?
stdout: 6.80

stdin: Any idea what pEC50 was measured for CC(C)CN(C[C@@H](O)[C@H](Cc1ccccc1)NC(=O)[C@H](C)CS(=O)(=O)CCc1ccccn1)S(=O)(=O)c1ccc2c(c1)OCO2 ?
stdout: 8.22

stdin: Any idea what pEC50 was measured for CC(C)CN(C[C@@H](O)[C@H](Cc1ccccc1)NC(=O)[C@H](C)CS(=O)(=O)c1ccccn1)S(=O)(=O)c1ccc2c(c1)OCO2 ?
stdout: 6.76

---

Would you kindly list IC50 for each of these compounds?
# target.entity: HIV protease (Human immunodeficiency virus type 1 group M subtype B, UniProt P04585)
Reply with just the number (in nM).

stdin: Any idea what IC50 was measured for CC(C)CN(C[C@@H](O)[C@H](Cc1ccccc1)NC(=O)[C@H](C)CS(=O)(=O)Cc1cn[nH]c1)S(=O)(=O)c1ccc2c(c1)OCO2 ?
stdout: 4

stdin: Any idea what IC50 was measured for CC(C)CN(C[C@@H](O)[C@H](Cc1ccccc1)NC(=O)[C@H](C)CS(=O)(=O)C[C@H]1CCCN1C(=O)OCc1ccccc1)S(=O)(=O)c1ccc2c(c1)OCO2 ?
stdout: 6

stdin: Any idea what IC50 was measured for CC(C)CN(C[C@@H](O)[C@H](Cc1ccccc1)NC(=O)[C@H](C)CSCCC(=O)N1CCN(C(=O)OC(C)(C)C)CC1)S(=O)(=O)c1ccc2c(c1)OCO2 ?
stdout: 16

stdin: Any idea what IC50 was measured for CC(C)CN(C[C@@H](O)[C@H](Cc1ccccc1)NC(=O)[C@H](C)CS(=O)(=O)CCc1ccccn1)S(=O)(=O)c1ccc2c(c1)OCO2 ?
stdout: 3

stdin: Any idea what IC50 was measured for CC(C)CN(C[C@@H](O)[C@H](Cc1ccccc1)NC(=O)[C@H](C)CS(=O)(=O)c1ccccn1)S(=O)(=O)c1ccc2c(c1)OCO2 ?
stdout: 11

stdin: Any idea what IC50 was measured for CC(C)CN(C[C@@H](O)[C@H](Cc1ccccc1)NC(=O)[C@H](C)CS(=O)(=O)CCC(=O)N1CCOCC1)S(=O)(=O)c1ccc2c(c1)OCO2 ?
stdout: 24

---

quantity.measured: IC50 (nM)
Reply with just the number (in nM).

stdin: Form field: IC50 recorded for COC1O[C@H](CS(=O)(=O)C[C@@H](C)C(=O)N[C@@H](Cc2ccccc2)[C@H](O)CN(CC(C)C)S(=O)(=O)c2ccc3c(c2)OCO3)[C@@H](O)[C@H]1O (stereo partly drawn) with HIV protease (Human immunodeficiency virus type 1 group M subtype B) (enter value)
stdout: 9

stdin: Form field: IC50 recorded for CC(C)CN(C[C@@H](O)[C@H](Cc1ccccc1)NC(=O)[C@H](C)CS(=O)(=O)CCC(=O)N1CCNCC1)S(=O)(=O)c1ccc2c(c1)OCO2 with HIV protease (Human immunodeficiency virus type 1 group M subtype B) (enter value)
stdout: 4

stdin: Form field: IC50 recorded for CC(C)CN(C[C@@H](O)[C@H](Cc1ccccc1)NC(=O)[C@H](C)CS(=O)(=O)CC(=O)c1ccccc1)S(=O)(=O)c1ccc2c(c1)OCO2 with HIV protease (Human immunodeficiency virus type 1 group M subtype B) (enter value)
stdout: 4
